For each of the molecules below, state its GI50.
# Tested on: OVCAR-3
# PROTOCOL_SUMMARY: NCI tumour cell line growth inhibition, 48 h
Calls of active or inactive are those of the source. Rule as the data show it: active = GI50 up to about 1.1 µM and inactive = higher.

Field: example entries. Status: answers known.
CCOc1cc(C2SCC(=O)N2c2ccc(Oc3ccc(Cl)cc3)c(Cl)c2)ccc1O (stereo unspecified)    14 µM (inactive)
CSc1nc(Cl)c(Br)c(Sc2nc(N)nc3nc[nH]c23)n1    15.2 µM (inactive)
O=C(CC1(O)C(=O)Nc2ccc(Br)cc21)c1ccc(Cl)cc1 (stereo unspecified)    > 100 µM (inactive)
COc1ccc(N2C(=O)C3c4[nH]c5cccc(Cl)c5c4C4CCC(C(C)(C)C)CC4C3C2=O)cc1 (stereo unspecified)    > 100 µM (inactive)

Record GI50 for all entries; do not skip any.
1. COc1ccccc1-c1nc(-c2ccccc2O)n[nH]1
2. Nc1cc(-c2ccc(Cl)cc2)nn1-c1nc2ccccc2nc1-c1ccccc1
3. COC(=O)C1Cc2c([nH]c3ccccc23)C(C2CCCCC2)N1 (stereo unspecified)
4. c1ccc(C2=NC3OC2c2ccccc23)cc1 (stereo unspecified)

[out]
["> 100 µM (inactive)", "65 µM (inactive)", "> 100 µM (inactive)", "> 10 µM (inactive)"]

Provide reported GI50 for each item, in the same order as listed.
1. COc1ccc(/C(Nc2ccccc2)=C(\CCl)c2ccccc2)cc1OC
2. COc1ccc2nc(-c3ccc(O)cc3)ccc2c1
3. COc1ccc(C2SCC(=O)N2c2ccc(-c3ccc(-n4c(-c5ccccc5)nc5ccccc5c4=O)cc3)cc2)cc1 (stereo unspecified)

[out]
35.7 µM (inactive)
> 100 µM (inactive)
17.5 µM (inactive)

----------
# Tested on: SNB-75
# PROTOCOL_SUMMARY: NCI tumour cell line growth inhibition, 48 h
Activity calls are given as the source filed them. No stated cut-off is given here; in the data, active = GI50 up to about 1.1 µM and inactive = higher. Square brackets hold non-standard residues; d marks the D form. Peptide text beside a SMILES is read from it. * marks the point of attachment. Phe(4-NO2) = N[CH](Cc1ccc([N+](=O)[O-])cc1)C(=O)O; Cbz = O=C(OCc1ccccc1)*
Outcomes you can answer with include only these: t for active, f for inactive

As a guide, the following entries are already answered.
CCc1cccc(C(C)C)c1NC(=O)C(=O)C(C(=O)C(=O)OC)c1nc2ccccc2nc1O (centres undefined)    f
O=C(O)COc1cccc2ccccc(=O)c12    t
CCOC(=O)CC(C)C1(C=O)CCCCC1=O (centres undefined)    f
CCOc1ccccc1NC(=O)C(=O)Cc1nc2ccccc2s1    f
CCCCCCCCCCCCCCNCC(OCC)OCC    f

[in] Outcome logged for C[C@H]1CC[P+](Cc2ccccc2)(c2ccccc2)C1 (some centres undefined) in this assay:
[out] f

[in] For O=C(CCc1nnc2s/c(=C\c3ccc(Cl)c(Cl)c3)c(=O)n12)Nc1ccc(Cl)c(Cl)c1 , which call appears in the assay record?
[out] f

[in] Hey, what did the test say about COc1ccc(NC(=O)CC(=O)N2N=C(N3c4ccccc4Sc4ccccc43)CC2c2ccccc2)cc1 (centres undefined) ?
[out] f

[in] Tell me the assay call for COC(=O)CC1(O)C=CC(=O)C=C1 please.
[out] f

[in] Tell me the recorded outcome of this test for O=C1CCCC/C1=C(\Br)I .
[out] f

[in] Call for entry COc1ccc(OC2OC(CO)C(O)C(O)C2O)cc1 (centres undefined) :
[out] f

[in] Please state the recorded outcome for this compound: CCOC(=O)CCC(NC(=O)OCc1ccccc1)C(=O)NC(CCC(=O)OCC)C(=O)NC(CCC(=O)OCC)C(=O)NC(CCC(=O)OCC)C(=O)NC(CCC(=O)OCC)C(=O)NC(Cc1ccc([N+](=O)[O-])cc1)C(=O)NC(CCC(=O)OCC)C(=O)NC(CCC(=O)OCC)C(=O)NC(CCC(=O)OCC)C(=O)NC(CCC(=O)OCC)C(=O)NC(CCC(=O)OCC)C(=O)OCC (centres undefined) (Cbz-E(OEt)E(OEt)E(OEt)E(OEt)E(OEt)[Phe(4-NO2)]E(OEt)E(OEt)E(OEt)E(OEt)E(OEt)-OEt; configuration not given here)
[out] f

[in] Please let me know the test result on file for CC(C)=CCC/C(C)=C\CC/C(C)=C/CO .
[out] f

----------
# System: 786-0
# PROTOCOL_SUMMARY: NCI tumour cell line growth inhibition, 48 h
The source made the active and inactive calls. Rule as the data show it: active = GI50 up to about 1.1 µM and inactive = higher.
Lab note: assign the record to one of 1.0 for active, 0.0 for inactive

As a guide, the following entries are already answered.
C=C1C[C@@H](O)[C@@H](Br)C(C)(C)[C@@]12C=CC(=O)CC2    0.0
COC(=O)C1=NC(=S)NC(c2ccccc2)C1c1nc2ccccc2s1 (stereo not given)    0.0
COc1cc2c(cc1OC)C(C(CO)CO)N(CC(O)CCl)CC2 (stereo not given)    0.0
CC1CC(C2=CC=CCS2)=Nc2ccccc2S1 (stereo not given)    0.0
CN(C)c1ccc(C=C2C(=O)N(c3ccccc3)N(c3ccccc3)C2=O)cc1    0.0

[in] Outcome logged for Cc1[nH]c(=O)c2oc3cc4ccccc4cc3c2c1C(=O)O in this assay:
[out] 0.0

[in] Which outcome did this test record for the compound COc1cc([C@H]2c3[nH]c4ccccc4c3C[C@H]3COC(=O)N32)cc(OC)c1O ?
[out] 1.0

[in] What was the test verdict on COC(=O)c1ccc(COC(=O)N2C=CCC2C(=O)O)cc1 (stereo not given) ?
[out] 0.0

[in] Entry CCCc1cc(OC(=O)c2c(O)cc(OC)cc2CCC)cc(O)c1C(=O)O : call = ?
[out] 0.0

[in] Could you kindly confirm the outcome this assay logged for C[C@]12CCC(=O)C=C1CC[C@@H]1[C@@H]2C(=O)C[C@@]2(C)[C@H]1CC[C@]2(O)C(=O)CO [CORTISONE] ?
[out] 0.0

----------
# Test system: KM12
# PROTOCOL_SUMMARY: NCI tumour cell line growth inhibition, 48 h
Calls of active or inactive are those of the source. Cut-off read from the data, not from the text of the source: active = GI50 up to about 1.1 µM and inactive = higher.
Select the correct class. Options are 1 for active, -1 for inactive and nothing else.

CC[C@H](C)[C@H]1NC(=O)[C@@H](NC(=O)[C@@H](CC(C)C)N(C)C(=O)C2CCCN2C(=O)[C@H](C)O)[C@@H](C)OC(=O)[C@H](Cc2ccc(OC)cc2)N(C)C(=O)[C@@H]2CCCN2C(=O)[C@H](CCCCNC(=O)OCc2ccccc2)NC(=O)[C@H](C)C(=O)[C@H](C(C)C)OC(=O)C[C@@H]1O (stereo partly drawn)    -1
COC(=O)CC1(O)C=CC(=O)C=C1    -1
NNC(=S)N/N=C(/C(=O)Nc1ccc(Cl)c(Cl)c1)C(C1OC(=O)c2ccccc21)[N+](=O)[O-] (stereo not drawn)    -1
COC(=O)c1ccc(COC(=O)N2C=CCC2C(=O)O)cc1 (stereo not drawn)    -1
O=C(OC[C@H]1C[C@H]2C(=O)CCC[C@H]2O1)c1ccccc1    -1
CC1CC2(CCC1OCc1ccccc1)OCCO2 (stereo not drawn)    -1

[in] // param item: O=C1/C(=C/c2cc(O)c(O)c(O)c2)Oc2cc(O)cc(OC3OC(CO)C(O)C(O)C3O)c21 (stereo not drawn) ; yields the recorded call
[out] -1

[in] Entry CC(=O)c1cc2c(s1)C(=O)c1ccsc1C2=O : call = ?
[out] -1

----------
Could you please report measured GI50 for the items listed next?
# Test system: SNB-78
# PROTOCOL_SUMMARY: NCI tumour cell line growth inhibition, 48 h
Activity calls are given as the source filed them. Rule as the data show it: active = GI50 up to about 1.1 µM and inactive = higher.

These recorded examples may help you get a feel for the data.
O=C(/C=C/c1ccccc1Cl)c1ccc(Cl)c(Cl)c1    16.2 µM (inactive)
CC1=C2[C@@H](c3ccccc3)C3C=CC2(c2ccccc23)N(C(=O)Nc2cccc3ccccc23)C1=O (stereo partly drawn)    > 100 µM (inactive)

Field: next compound
[in] Using the record for COc1ccc2c(c1)Oc1cc(O)ccc1[C@H]2c1ccccc1C(=O)NC(C)c1ccccc1 (stereo partly drawn) , report its GI50.
[out] 16.6 µM (inactive)

----------
# Tested on: MCF7
# PROTOCOL_SUMMARY: NCI tumour cell line growth inhibition, 48 h
Calls of active or inactive are those of the source. Rule as the data show it: active = GI50 up to about 1.1 µM and inactive = higher.
Could you please pick one outcome from this set? active, inactive

Solved cases below.
COc1nc(C#CCC(C)O)nc(OC)n1 (configuration not stated)    inactive
CC[C@@]12CCCN3CC[C@]4(c5cccc(OC)c5N(C(C)=O)[C@@H]4CC1)[C@H]32    inactive
C[C@@H](c1ccccc1)N1CN(C(=O)OCc2ccccc2)C(CO)C1=O (some centres not stated)    inactive
CCC/N=C/c1cc(Cc2ccc(O)c(/C=N/CCC)c2)ccc1O    inactive
Nc1ccc(C(=O)N2CCC[C@H]2CO)c(N)c1    inactive

[in] // param item: S=C(N/N=C\C=N/NC(=S)N1CCCCC1)N1CCCCC1 ; yields the recorded call
[out] active

[in] I'd appreciate the recorded outcome for O=S(=O)(O)n1ccnc1 from this test.
[out] inactive

[in] Hey, what did the test say about COc1ccc(C2SCC(=O)N2c2ccc(-c3ccc(-n4c(-c5ccccc5)nc5ccccc5c4=O)cc3)cc2)cc1 (configuration not stated) ?
[out] inactive

[in] Answer briefly: the call reported for O=[N+]([O-])c1ccc(NC(=S)Nc2ccccn2)cc1 in this assay.
[out] inactive

[in] Recorded test call requested for CCOC(=O)c1[nH]cc(C)c1-c1cccn1-c1ccc(Cl)cc1[N+](=O)[O-]
[out] inactive

[in] How was O=CC(O)C(O)C(O)C(O)C(=O)NCCCCCCCCCCCCNC(=O)C(O)C(O)C(O)C(O)C=O (configuration not stated) classified in this test?
[out] inactive

[in] So what was the verdict on CSC1=NN=C(SC)NN1 in this test?
[out] active
